src = ChEMBL document CHEMBL1201862

Tested on: BT-549
assay summary: NCI tumour cell line growth inhibition, 48 h
Activity calls are given as the source filed them. No stated cut-off is given here; in the data, active = GI50 up to about 1.1 µM and inactive = higher.
Please respond with reported GI50 for every item in the list.

Request: Please give measured GI50 of the following entry: `OCCNc1nc2c(N3CCCC3)nc(N3CCNCC3)nc2nc1NCc1ccccc1`
Result: 16.4 µM (inactive)

Request: Please give measured GI50 of the following entry: COC(=O)C1CC(C=O)=C(SC)N1 (stereo not given)
Result: > 50 µM (inactive)

Request: Please give measured GI50 of the following entry: `Cc1ccc(-n2nnc(C#N)c2O)cc1`
Result: > 100 µM (inactive)

Request: Please give measured GI50 of the following entry: `O=C(N/N=C/C=C/c1ccccc1)c1ccccc1Nc1ccccc1C(=O)N/N=C/C=C/c1ccccc1`
Result: > 100 µM (inactive)

Request: Please give measured GI50 of the following entry: `CCOC(=O)/C(=C\c1ccc(N(C)C)cc1)S(=O)(=O)C(F)(F)C(F)(F)C(F)(F)C(F)(F)F`
Result: 52.6 µM (inactive)

Request: Please give measured GI50 of the following entry: `CC1=C(Cl)C[C@@H](/C(C)=C\Cl)O[C@@]1(O)C(Br)Br`
Result: 28.4 µM (inactive)

Request: Please give measured GI50 of the following entry: `COc1cc(NS(C)(=O)=O)ccc1N1Cc2c[nH]c3ccc4nccc1c4c23`
Result: 42.9 µM (inactive)

Request: Please give measured GI50 of the following entry: COc1c(C(CC(C)C)OC(C)=O)ccc2c1C(=O)OCc1cc(C)cc(O)c1O2 (stereo not given)
Result: 16.2 µM (inactive)

Request: Please give measured GI50 of the following entry: `N#Cc1c(-c2ccc(Cl)cc2)c(-c2ccc(Cl)cc2)nn(CCOC(=O)CCC(=O)O)c1=O`
Result: 11.9 µM (inactive)

Request: Please give measured GI50 of the following entry: S=C1CC(c2ccccc2)Sc2ccccc2N1 (stereo not given)
Result: 53 µM (inactive)

* * *

Tested on: OVCAR-3
assay summary: NCI tumour cell line growth inhibition, 48 h
Active and inactive are the calls of the source. Rule as the data show it: active = GI50 up to about 1.1 µM and inactive = higher.
Choose the fitting class; nothing outside true for active, false for inactive is accepted.

Request: For `Cc1cc(=O)oc2cc(O)ccc12` , which call appears in the assay record?
Result: false

Request: For O=C(CN1CCOCC1)Nc1ccc2c(c1)C1Oc3ccccc3CC1CO2 (stereo not drawn) , which call appears in the assay record?
Result: false

Request: For `CC(=O)NCCc1c(-c2[nH]c3ccccc3c2CCNC(C)=O)[nH]c2ccccc12` , which call appears in the assay record?
Result: false

Request: For `O=[N+]([O-])/C(C(Cl)=C(Cl)Cl)=C(/Cl)Sc1ccccc1` , which call appears in the assay record?
Result: false

Request: For `N#Cc1c(-c2ccc(Cl)cc2)c(-c2ccc(Cl)cc2)nn(CCOC(=O)CCC(=O)O)c1=O` , which call appears in the assay record?
Result: true

Request: For COc1ccc(S(=O)(=O)NC(CCC(=O)NN)C(=O)NN)cc1 (stereo not drawn) , which call appears in the assay record?
Result: false

Request: For COc1c(C(CC(C)C)OC(C)=O)ccc2c1C(=O)OCc1cc(C)cc(O)c1O2 (stereo not drawn) , which call appears in the assay record?
Result: false

Request: For `Cc1c2ccccc2c(=O)n2c(-c3ccccn3)cccc12` , which call appears in the assay record?
Result: false

Request: For COc1ccc(C(=O)C(C(=O)CCC(=O)Nc2cccc(C(F)(F)F)c2)c2ccccc2)cc1 (stereo not drawn) , which call appears in the assay record?
Result: false

Request: For COc1ccc(CC2c3cc(OC)c(OC)c(OC)c3CC[N+]2(C)C)cc1Oc1ccc(CC2c3cc4c(c(OC)c3CCN2C)OCO4)cc1 (stereo not drawn) , which call appears in the assay record?
Result: false

Request: For COc1cc(C2c3cc4c(cc3[C@@H](Nc3ccc(C(=O)O)cc3)C3COC(=O)[C@H]23)OCO4)cc(OC)c1O (stereo partly drawn) , which call appears in the assay record?
Result: false

Request: For `Fc1cccc(F)c1C(Nc1nncs1)Nc1nncs1` , which call appears in the assay record?
Result: false

Request: For `Oc1ccc(-c2nc3ccc(Cl)cc3s2)cc1` , which call appears in the assay record?
Result: false

Request: For COC(=O)C1=C(C)NC(CF)=C(C(=O)OC)C1c1cccc2c(=O)c3ccccc3oc12 (stereo not drawn) , which call appears in the assay record?
Result: false

Request: For CC(C)N(C(=O)C12C3C4C1C1C4(C#N)C3C12C#N)C(C)C (stereo not drawn) , which call appears in the assay record?
Result: false

Request: For `CN(C)c1cccc(-c2cc(O)c3cc4c(cc3n2)OCO4)c1` , which call appears in the assay record?
Result: true

Request: For `C=C1C(=O)O[C@@H]2C[C@@]3(C)CCCC(=C)[C@@H]3C[C@H]12.C=C1C(=O)O[C@@H]2C[C@@]3(C)CCC[C@H](C)C3=C[C@H]12` , which call appears in the assay record?
Result: false

Request: For `Cc1c(C)n(COCCO)c2ncnc(N)c12` , which call appears in the assay record?
Result: false

Request: For `Cc1nc2nn(C)cc2c(=O)n1/N=C/c1ccccc1` , which call appears in the assay record?
Result: false

Request: For `Oc1ccc(C[C@@H]2CN[C@H](Cc3ccc(O)c(Br)c3)CN2)cc1` , which call appears in the assay record?
Result: false

Request: For `NC(=O)[N+](=CC(=S)Nc1ccccc1Cl)C(N)=O` , which call appears in the assay record?
Result: false

Request: For `O=C1C=C(Nc2nc(O)cc(C(=O)O)n2)c2ccccc2C1=O` , which call appears in the assay record?
Result: false

Request: For `O=C1/C(=C/c2ccc(Cl)cc2)N=C(c2ccccc2)N1c1nc2ccccc2s1` , which call appears in the assay record?
Result: false

Request: For `O=C(O)/C=N/NC(=S)NC1CCCCC1` , which call appears in the assay record?
Result: false

Request: For `Nc1nc(OCC2CCCCC2)c2nc[nH]c2n1` , which call appears in the assay record?
Result: false

Request: For `O=S(=O)(CC#CCS(=O)(=O)c1ccccc1)c1ccccc1` , which call appears in the assay record?
Result: false

Request: For C[N+](C)(C)c1ncnc2c1ncn2C1CCCCO1 (stereo not drawn) , which call appears in the assay record?
Result: false

Request: For `C[Si](C)(OCCS(=O)(=O)O)OC(=C1S(=O)(=O)OCCOS1(=O)=O)c1cccc2ccccc12` , which call appears in the assay record?
Result: false

* * *

Tested on: DLD-1
assay summary: NCI tumour cell line growth inhibition, 48 h
Calls of active or inactive are those of the source. Cut-off read from the data, not from the text of the source: active = GI50 up to about 1.1 µM and inactive = higher.
Choose the fitting class; nothing outside Y (active), N (inactive) is accepted.

Request: For O=[N+]([O-])c1ccc(C2SCc3nc4ccccc4n32)cc1 (configuration not stated) , which call appears in the assay record?
Result: N

Request: For C[C@]12Cc3conc3C(O)=C1CC[C@@H]1C2CC[C@@]2(C)C1CC[C@]2(C)O (some centres not stated) , which call appears in the assay record?
Result: N

Request: For C=C1CC2CC[C@@]34C[C@@H]5O[C@@H]6C(O[C@H]7CC[C@H](CC(=O)OC8[C@@H](C)C9OC%10C[C@]%11(C[C@@H]%12O[C@@]%13(C[C@@H](C)[C@@H]%12O%11)C[C@H](C)[C@@H]%11OC%12CC(C(O)CO)OC%12C[C@@H]%11O%13)OC%10CC9O[C@H]8C[C@H]8O[C@@H](CC[C@@H]1O2)C[C@@H](C)C8=C)O[C@@H]7[C@@H]6O3)C5O4 (some centres not stated) , which call appears in the assay record?
Result: Y

Request: For COc1ccc(C2S/C(=C\c3ccc(O)cc3)C(=O)N2NC(=O)Cc2ccccc2)cc1 (configuration not stated) , which call appears in the assay record?
Result: N

Request: For `Cn1c2c(c3ccccc31)CCN(CCN1CCN(c3cccc(Cl)c3)CC1)C2=O` , which call appears in the assay record?
Result: N

Request: For `COC[C@@H]1Cc2cc(OC)c3c(c2[C@H](c2ccc(OC)c(OC)c2)[C@H]1COC)OCO3` , which call appears in the assay record?
Result: N

Request: For O=[N+]([O-])c1cccc(C(O)/C(=N/O)c2nc3ccc(Cl)cc3nc2O)c1 (configuration not stated) , which call appears in the assay record?
Result: N

* * *

Tested on: CCRF-CEM
assay summary: NCI tumour cell line growth inhibition, 48 h
Calls of active or inactive are those of the source. No stated cut-off is given here; in the data, active = GI50 up to about 1.1 µM and inactive = higher. Starred links: 1 amine or outer side, 2 acyl side, 3 side chain; linkers in the order of their positions; H or OH if unused. Positions of bridges follow the written chain, without caps; N, C: chain ends. Non-standard residues stand in square brackets, D forms with d. Residues, ends and D or L forms follow the SMILES beside them. Chains are numbered I, II in the order given. Actinocin(1to9) = Cc1c2oc3c(C)ccc(C(=O)[*:2])c3nc-2c(C(=O)[*:1])c(N)c1=O; NMeV = CN[CH](C(=O)O)C(C)C; Sar = CNCC(=O)O
Choose the fitting class; nothing outside label 1 for active, label 0 for inactive is accepted.

Request: For CCCCCCCCCCCCCCCCCCNc1ccn(C2OC(COP(=O)(O)OCC3OC(n4ccc(NC(=O)CCCCCCCCCCCCCCCCC)nc4=O)C(OC(C)=O)C3OC(C)=O)C(OC(C)=O)C2OC(C)=O)c(=O)n1 (configuration not stated) , which call appears in the assay record?
Result: label 0

Request: For C[C@H](NC(=O)OC1C2C=CC(O)C1CC2)c1ccccc1 (some centres not stated) , which call appears in the assay record?
Result: label 0

Request: For `N#C/C(=C/c1ccsc1)C(=O)c1ccccc1` , which call appears in the assay record?
Result: label 0

Request: For `COc1cc2c(c(OC)c1OC)-c1ccc(SC)c(=O)cc1[C@@H](O)CC2` , which call appears in the assay record?
Result: label 1

Request: For `COC(=O)c1nc(N)nc(O)c1CCCCCc1c(O)nc(N)nc1C(=O)OC` , which call appears in the assay record?
Result: label 0

Request: For `CC(=O)/C(=C\n1c(=S)[nH]c2ccc([N+](=O)[O-])cc21)C(=O)Nc1ccccc1C` , which call appears in the assay record?
Result: label 0

Request: For `C[Si](C)(C)CNC(=O)OCc1ccccc1` , which call appears in the assay record?
Result: label 0

Request: For `CC1=C(Br)C(=O)C(C)=C(Br)C1=O.Cc1c(O)c(Br)c(C)c(O)c1Br` , which call appears in the assay record?
Result: label 1

Request: For CC(=O)NC1C(OCc2ccccc2)OC(CO)C(O)C1OC(C)C(=O)NC(C(=O)NC(CCC(=O)Nc1ccc2c(c1)CN1C(=O)c3ccccc3C1=N2)C(N)=O)C(C)C (configuration not stated) , which call appears in the assay record?
Result: label 0

Request: For CCC1=CC2Cc3nc4cc(Cl)ccc4c(N)c3C(C1)C2 (configuration not stated) , which call appears in the assay record?
Result: label 0

Request: For `CCN(CC)Cc1cc(Nc2ccnc3ccc4nn(C)nc4c23)ccc1O` , which call appears in the assay record?
Result: label 0

Request: For `CC(C)(C)OC(=O)N(CCCN)CCCCN(CCCN)C(=O)OC(C)(C)C` , which call appears in the assay record?
Result: label 0

Request: For `CN1CN(c2ccccc2)C2(CCN(C(=O)OC(C)(C)C)CC2)C1=O` , which call appears in the assay record?
Result: label 0

Request: For CCC(C)C1NC(=O)C(NC(=O)c2c3nc4c(C(=O)NC5C(=O)NC(C(C)CC)C(=O)N6CCCC6C(=O)N(C)CC(=O)N(C)C(C(C)C)C(=O)OC5C)ccc(C)c4oc-3c(C)c(=O)c2N)C(C)OC(=O)C(C(C)C)N(C)C(=O)CN(C)C(=O)C2CCCN2C1=O (configuration not stated) (I: TIP[Sar][NMeV] / II: TIP[Sar][NMeV]; ester I:1-I:C, II:1-II:C; linker I:N-II:N via Actinocin(1to9); configuration not given here) , which call appears in the assay record?
Result: label 1

Request: For COC(=O)C1=C(C(=O)OC)C2(C(=O)OC)OC1(OC)C(C1(C(=O)OC)C(C(=O)OC)=C1C(=O)OC)=C2C(=O)OC (configuration not stated) , which call appears in the assay record?
Result: label 0

Request: For `O=C(/C=C/c1ccccc1)c1cc(Br)ccc1O` , which call appears in the assay record?
Result: label 0

Request: For `O=NN(CCCl)C(=O)N[C@H]1CC[C@@H](CC(=O)O)CC1` , which call appears in the assay record?
Result: label 0
